Target: T1, Recombinant purified human PD-1 protein, residues Leu25-Thr168, with a C-terminal 6-His tag (Homo sapiens, UniProt Q15116)
T1 construct: programmed cell death protein 1 (PD-1), human, residues Leu25-Thr168; also called programmed cell death protein 1; PD-1-His monomer; source: bought: R&D Systems (catalog# 8986-PD, lot# DDJM0417041)
T1 sequence (Q15116 25-168): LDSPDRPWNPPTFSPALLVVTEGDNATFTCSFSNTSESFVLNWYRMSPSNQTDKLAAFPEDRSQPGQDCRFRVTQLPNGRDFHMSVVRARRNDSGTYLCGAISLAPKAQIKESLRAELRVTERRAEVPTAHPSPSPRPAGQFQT
Assay: SPR; Biacore 8K, C1 chip (flat); mAb captured on amine-coupled goat anti-human IgG Fc, PD-1-His monomer as analyte (100 nM top, 3-fold dilutions), 1200 s dissociation; 25 C, HBS-EP+ pH 7.4; 1:1 Langmuir fit, apparent constants; 8 mAbs measured in two independent experiments
Conditions: both partners purified
measurement.kind: pKd
// pKd here means minus log10 of the molar concentration (mol/L)

input: Would you mind telling me what pKd value was observed for mAb16 (antibody, V domains shown, IgG4; also called analog of dostarlimab; dostar; source: HEK293 suspension cells, cotransfected, purified (Protein A)) VH: EVQLLESGGGLVQPGGSLRLSCAASGFTFSSYDMSWVRQAPGKGLEWVSTISGGGSYTYYQDSVKGRFTISRDNSKNTLYLQMNSLRAEDTAVYYCASPYYAMDYWGQGTTVTVSS VL: DIQLTQSPSFLSAYVGDRVTITCKASQDVGTAVAWYQQKPGKAPKLLIYWASTLHTGVPSRFSGSGSGTEFTLTISSLQPEDFATYYCQHYSSYPWTFGQGTKLEIK ?
output: 9.11

input: Request: mAb03 (antibody, V domains shown, IgG4; also called analog of tislelizumab; tisle; source: HEK293 suspension cells, cotransfected, purified (Protein A)) VH: QVQLQESGPGLVKPSETLSLTCTVSGFSLTSYGVHWIRQPPGKGLEWIGVIYADGSTNYNPSLKSRVTISKDTSKNQVSLKLSSVTAADTAVYYCARAYGNYWYIDVWGQGTTVTVSS VL: DIVMTQSPDSLAVSLGERATINCKSSESVSNDVAWYQQKPGQPPKLLINYAFHRFTGVPDRFSGSGYGTDFTLTISSLQAEDVAVYYCHQAYSSPYTFGQGTKLEIK
output: 9.93

input: Request: mAb04 (antibody, V domains shown, IgG4; also called analog of retifanlimab; retifan; source: HEK293 suspension cells, cotransfected, purified (Protein A)) VH: QVQLVQSGAEVKKPGASVKVSCKASGYSFTSYWMNWVRQAPGQGLEWIGVIHPSDSETWLDQKFKDRVTITVDKSTSTAYMELSSLRSEDTAVYYCAREHYGTSPFAYWGQGTLVTVSS VL: EIVLTQSPATLSLSPGERATLSCRASESVDNYGMSFMNWFQQKPGQPPKLLIHAASNQGSGVPSRFSGSGSGTDFTLTISSLEPEDFAVYFCQQSKEVPYTFGGGTKVEIK
output: 9.51

input: Request: mAb17 (antibody, V domains shown, IgG4; also called analog of camrelizumab; camre; source: HEK293 suspension cells, cotransfected, purified (Protein A)) VH: EVQLVESGGGLVQPGGSLRLSCAASGFTFSSYMMSWVRQAPGKGLEWVATISGGGANTYYPDSVKGRFTISRDNAKNSLYLQMNSLRAEDTAVYYCARQLYYFDYWGQGTTVTVSS VL: DIQMTQSPSSLSASVGDRVTITCLASQTIGTWLTWYQQKPGKAPKLLIYTATSLADGVPSRFSGSGSGTDFTLTISSLQPEDFATYYCQQVYSIPWTFGGGTKVEIK
output: 8.67

input: Request: mAb23 (antibody, V domains shown, IgG4; also called analog of cemiplimab; cemip; source: HEK293 suspension cells, cotransfected, purified (Protein A)) VH: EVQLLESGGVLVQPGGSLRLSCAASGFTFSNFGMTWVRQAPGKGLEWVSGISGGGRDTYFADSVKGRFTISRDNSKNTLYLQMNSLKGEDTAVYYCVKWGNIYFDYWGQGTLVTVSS VL: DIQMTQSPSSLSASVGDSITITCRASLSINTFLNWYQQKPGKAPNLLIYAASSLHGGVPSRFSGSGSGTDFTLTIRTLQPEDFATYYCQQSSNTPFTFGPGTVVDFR
output: 9.12

Data provenance is paper PMC7058304.
